# tested target: T1, HLA-A*02:01 (peptide-receptive MHC class I monomer after UV cleavage of the UV-sensitive ligand) (human)
# T1 construct: MHC monomers loaded by UV-ligand exchange and captured on streptavidin plates
# method: UV ligand-exchange ELISA; exchange yield grade (+ >=10%, ++ >=20%, +++ >=50%, ++++ >=75%)
# From the text: Candidate peptides for T cell based therapies according to the present invention were further tested for their MHC binding capacity (affinity). The individual peptide-MHC complexes were produced by UV-ligand exchange, where a UV-sensitive peptide is cleaved upon UV-irradiation, and exchanged with the peptide of interest as analyzed. Only peptide candidates that can effectively bind and stabilize the peptide-receptive MHC molecules prevent dissociation of the MHC complexes. […]
Here the recorded peptide exchange yield is given for each entry.

Would you please look over these solved cases?
binder	result
KILDEDLYI [KILDEDLYI (SEQ ID NO: 48)]	50 to 75%
SITAVTPLL [SITAVTPLL (SEQ ID NO: 285)]	50 to 75%
ALTDVILCV [ALTDVILCV (SEQ ID NO: 298)]	≥ 75%
ALAAGGYDV [ALAAGGYDV (SEQ ID NO: 202)]	20 to 50%
ALDQFLEGI [ALDQFLEGI (SEQ ID NO: 218)]	50 to 75%

Tell me the measured peptide exchange yield of ILMGHSLYM [ILMGHSLYM (SEQ ID NO: 287)] , please.
≥ 75%

Tell me the measured peptide exchange yield of ALAPYLDLL [ALAPYLDLL (SEQ ID NO: 62)] , please.
≥ 75%

Tell me the measured peptide exchange yield of HLSSTTAQV [HLSSTTAQV (SEQ ID NO: 91)] , please.
20 to 50%
